TGT: BoNT/A (Clostridium botulinum, UniProt P0DPI0)
Sequence (P0DPI0 2-448 limits assumed): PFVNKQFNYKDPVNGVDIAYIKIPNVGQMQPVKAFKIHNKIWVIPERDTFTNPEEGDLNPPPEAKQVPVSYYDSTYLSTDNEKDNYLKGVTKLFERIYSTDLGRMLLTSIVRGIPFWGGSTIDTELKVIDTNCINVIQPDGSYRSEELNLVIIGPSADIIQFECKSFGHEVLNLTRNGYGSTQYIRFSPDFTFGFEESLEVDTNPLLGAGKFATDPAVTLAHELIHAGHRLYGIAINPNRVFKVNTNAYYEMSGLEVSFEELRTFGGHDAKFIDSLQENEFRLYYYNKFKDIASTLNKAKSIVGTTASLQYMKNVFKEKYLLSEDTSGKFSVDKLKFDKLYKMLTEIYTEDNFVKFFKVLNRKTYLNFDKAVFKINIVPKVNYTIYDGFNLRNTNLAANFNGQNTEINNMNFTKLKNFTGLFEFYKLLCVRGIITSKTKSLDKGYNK
Sequence (P0DPI0 449-1296 limits assumed): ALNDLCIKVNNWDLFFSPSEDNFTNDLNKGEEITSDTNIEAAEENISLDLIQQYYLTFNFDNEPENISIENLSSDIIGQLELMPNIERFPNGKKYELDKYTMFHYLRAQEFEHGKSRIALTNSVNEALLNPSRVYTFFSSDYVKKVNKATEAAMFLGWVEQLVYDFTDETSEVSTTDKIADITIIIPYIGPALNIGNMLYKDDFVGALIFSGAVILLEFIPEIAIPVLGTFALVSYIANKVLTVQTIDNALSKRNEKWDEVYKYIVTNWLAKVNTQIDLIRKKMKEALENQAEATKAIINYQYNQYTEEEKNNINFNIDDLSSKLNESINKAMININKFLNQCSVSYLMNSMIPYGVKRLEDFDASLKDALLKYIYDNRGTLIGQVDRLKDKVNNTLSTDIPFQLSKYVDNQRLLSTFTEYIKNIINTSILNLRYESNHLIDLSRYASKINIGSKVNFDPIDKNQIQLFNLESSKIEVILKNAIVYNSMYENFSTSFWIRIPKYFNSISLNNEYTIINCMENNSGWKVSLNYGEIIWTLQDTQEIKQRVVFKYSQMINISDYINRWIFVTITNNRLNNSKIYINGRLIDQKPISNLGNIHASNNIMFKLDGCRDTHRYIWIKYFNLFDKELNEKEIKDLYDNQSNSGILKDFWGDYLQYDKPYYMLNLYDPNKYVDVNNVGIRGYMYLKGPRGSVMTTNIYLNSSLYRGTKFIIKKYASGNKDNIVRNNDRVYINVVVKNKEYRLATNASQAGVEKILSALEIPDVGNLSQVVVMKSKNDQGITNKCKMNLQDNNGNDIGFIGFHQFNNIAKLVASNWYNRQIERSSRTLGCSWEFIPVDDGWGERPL
Parameters: species or system CD-1 mice
SETTINGS: mouse, in vivo
Structures can show the parent of a compound that is named as a salt.
Each item that follows carries a reported median survival time (hr) treated.

{"COMPOUND": "C=CC1=C(C)c2cc3[nH]c(cc4nc(cc5[nH]c(cc1n2)c(C)c5CCC(=O)O)C(CCC(=O)O)=C4C)c(C)c3C=C [PPIX, Protoporphyrin IX disodium]", "median survival time (hr) treated (h)": 26.0}
{"COMPOUND": "NC(CO)C(=O)NNCc1ccc(O)c(O)c1O (stereo not drawn) [Benserazide, Benserazide hydrochloride]", "median survival time (hr) treated (h)": 29.8}
{"COMPOUND": "NC(Cc1cc(O)c(O)cc1O)C(=O)O (racemic) [6-OHD, 6-Hydroxy-DL-DOPA]", "median survival time (hr) treated (h)": 28.7}
{"COMPOUND": "CO/N=C(\\C(=O)N[C@@H]1C(=O)N2C(C(=O)O)=C(COC(C)=O)CS[C@H]12)c1csc(N)n1 [Cefotaxime sodium]", "median survival time (hr) treated (h)": 21.0}
{"COMPOUND": "Nc1nc2[nH]c(=O)cnc2c(=O)[nH]1 [Isoxanthopterin]", "median survival time (hr) treated (h)": 26.67}
{"COMPOUND": "NCCOc1cc(C(=O)Nc2cc(OCCN)c3ccccc3n2)nc(C(=O)Nc2cc(OCCN)c3ccccc3n2)c1 [Pyridostatin trifluoroacetate salt]", "median survival time (hr) treated (h)": 22.17}

====

TGT: receptor binding domain (HC fragment) of BoNT/A binding to the fourth luminal domain of SV2C (Clostridium botulinum)
ASSAY: biochemical
Design: species or system Mus musculus
SETTINGS: read-out: Maximal Inhibition (%)
Counter-ions that a name gives are not always drawn.

{"MOLECULE": "O=C(O)C1=CC(=C(c2ccc(O)c(C(=O)O)c2)c2ccc(O)c(C(=O)O)c2)C=CC1=O", "RESULT_UNITS": "%", "inhibition at 100 µM": 100}
{"MOLECULE": "Nc1nc2[nH]c(=O)cnc2c(=O)[nH]1", "RESULT_UNITS": "%", "inhibition at 100 µM": 68}
{"MOLECULE": "NC(Cc1cc(O)c(O)cc1O)C(=O)O (racemic) [6-OHD, 6-Hydroxy-DL-DOPA]", "RESULT_UNITS": "%", "inhibition at 100 µM": 98}
{"MOLECULE": "NC(CO)C(=O)NNCc1ccc(O)c(O)c1O (centres unmarked) [Benserazide, Benserazide hydrochloride]", "RESULT_UNITS": "%", "inhibition at 100 µM": 95}

====

Each item that follows carries a reported IC50.
TGT: receptor binding domain (HC fragment) of BoNT/A binding to the fourth luminal domain of SV2C (Clostridium botulinum)
ASSAY: biochemical
Design: species or system Mus musculus
SETTINGS: IC50 (µM), TSP-RSP interaction inhibition
Where a name gives a salt, the structure may show the parent alone.

{"MOLECULE": "O=C(O)C1=CC(=C(c2ccc(O)c(C(=O)O)c2)c2ccc(O)c(C(=O)O)c2)C=CC1=O", "IC50, µM": 2}
{"MOLECULE": "NC(CO)C(=O)NNCc1ccc(O)c(O)c1O (centres unmarked) [Benserazide, Benserazide hydrochloride]", "IC50, µM": 18}
{"MOLECULE": "CO/N=C(\\C(=O)N[C@@H]1C(=O)N2C(C(=O)O)=C(COC(C)=O)CS[C@H]12)c1csc(N)n1 [Cefotaxime sodium]", "IC50, µM": 3}
{"MOLECULE": "C=CC1=C(C)c2cc3[nH]c(cc4nc(cc5[nH]c(cc1n2)c(C)c5CCC(=O)O)C(CCC(=O)O)=C4C)c(C)c3C=C [PPIX, Protoporphyrin IX disodium]", "IC50, µM": 84}
{"MOLECULE": "NC(Cc1cc(O)c(O)cc1O)C(=O)O (racemic) [6-OHD, 6-Hydroxy-DL-DOPA]", "IC50, µM": 1}
{"MOLECULE": "NCCOc1cc(C(=O)Nc2cc(OCCN)c3ccccc3n2)nc(C(=O)Nc2cc(OCCN)c3ccccc3n2)c1 [Pyridostatin trifluoroacetate salt]", "IC50, µM": 4}
{"MOLECULE": "CC(=O)OCC1=C(C(=O)O)N2C(=O)[C@@H](NC(=O)CCC[C@@H](N)C(=O)O)[C@H]2SC1 [Cephalosporin C zinc salt]", "IC50, µM": 27}
{"MOLECULE": "Nc1nc2[nH]c(=O)cnc2c(=O)[nH]1", "IC50, µM": 34}
